- test-system: UniProt:Q99705
- experimental-protocol: High throughput functional screening FLIPR/FDSS6000: inhibition of MCH-evoked intracellular Ca2+ changes
- Type: cell-based
- condition-details: class by percent of control at 10^−7 M or by IC50; read-out: class
pIC50: −log10 of the molar value.
assay-readout: pIC50

Worked cases, answers included:
stdin: Find the measured pIC50 of COc1cccc(OCC(=O)N[C@H]2CC[C@@H](Nc3nc(N(C)C)c4ccccc4n3)CC2)c1 [Example 1081] and report it.
stdout: > 7.30

stdin: Find the measured pIC50 of CN(C)c1nc(N[C@H]2CC[C@@H](C(=O)NCc3ccccc3C(F)(F)F)CC2)nc2ccccc12 [Example 1193] and report it.
stdout: > 7.30

stdin: Find the measured pIC50 of COc1cccc(NC(=O)NC[C@H]2CC[C@@H](Nc3nc(N(C)C)c4ccccc4n3)CC2)c1 [Example 1017] and report it.
stdout: 6.70 to 7.30

---
stdin: Find the measured pIC50 of CN(C)c1nc(N[C@H]2CC[C@@H](C(=O)NCc3cccc(Br)c3)CC2)nc2ccccc12 [Example 1160] and report it.
stdout: > 7.30

stdin: Find the measured pIC50 of COc1cccc(OC)c1CNC(=O)[C@H]1CC[C@@H](Nc2nc(N(C)C)c3ccccc3n2)CC1 [Example 1188] and report it.
stdout: > 7.30

stdin: Find the measured pIC50 of CC(NC(=O)[C@H]1CC[C@@H](Nc2nc(N(C)C)c3cc(F)c(F)cc3n2)CC1)c1ccc(Br)cc1 (relative stereo) [Example 1008] and report it.
stdout: 6.70 to 7.30

stdin: Find the measured pIC50 of CN(C)c1nc(N[C@H]2CC[C@@H](CNC(=O)[C@H](O)c3ccccc3Cl)CC2)nc2ccccc12 [Example 1101] and report it.
stdout: 6.70 to 7.30

---

Some molecules, each annotated with its measured pIC50.
- test-system: MCH receptor (Homo sapiens, UniProt Q99705)
- experimental-protocol: High throughput functional screening FLIPR/FDSS6000: inhibition of MCH-evoked intracellular Ca2+ changes
- Type: cell-based
- condition-details: class by percent of control at 10^-7 M or by IC50; read-out: class
pIC50: −log10 of the molar value.

stdin: Find the measured pIC50 of CN(C)c1nc(N[C@H]2CC[C@@H](NC(=O)Nc3ccc(I)cc3)CC2)nc2ccccc12 [compound 826] and report it.
stdout: 6.70 to 7.30

---
stdin: Find the measured pIC50 of CN(C)c1nc(N[C@H]2CC[C@@H](NC(=O)Nc3cccc(Cl)c3)CC2)nc2ccccc12 [compound 14] and report it.
stdout: < 6.70

stdin: Find the measured pIC50 of CCN(CC)c1ccc(NC(=S)NC[C@H]2CC[C@@H](Nc3nc(N(C)C)c4ccccc4n3)CC2)cc1 [compound 811] and report it.
stdout: < 6.70

stdin: Find the measured pIC50 of Cc1ccccc1NC(=O)N[C@H]1CC[C@@H](Nc2nc(N(C)C)c3ccccc3n2)CC1 [compound 60] and report it.
stdout: > 7.30

stdin: Find the measured pIC50 of CN(C)c1nc(N[C@H]2CC[C@@H](NC(=S)NC(C)(C)CC(C)(C)C)CC2)nc2ccccc12 [compound 190] and report it.
stdout: < 6.70

stdin: Find the measured pIC50 of COC(=O)NC[C@H]1CC[C@@H](Nc2nc(N(C)C)c3ccccc3n2)CC1 [compound 882] and report it.
stdout: < 6.70

stdin: Find the measured pIC50 of COc1ccc(NC(=O)N[C@H]2CC[C@@H](Nc3nc(N(C)C)c4ccccc4n3)CC2)cc1 [compound 43] and report it.
stdout: 6.70 to 7.30

stdin: Find the measured pIC50 of CN(C)c1nc(N[C@H]2CC[C@@H](NC(=S)Nc3c(Cl)cccc3Cl)CC2)nc2ccccc12 [compound 171] and report it.
stdout: < 6.70

---

Some compounds, each annotated with its measured pIC50.
- test-system: MCH receptor (Homo sapiens)
- experimental-protocol: High throughput functional screening FLIPR/FDSS6000: inhibition of MCH-evoked intracellular Ca2+ changes
- Format: cell-based
- condition-details: antagonist activity, 50 nM of MCH, FLIPR or FDSS; read-out: IC50
Structures can show the parent of a compound that is named as a salt.
Remember the convention: pIC50 equals -log10 of concentration in molar.

Worked cases, answers included:
stdin: Find the measured pIC50 of CN(C)c1nc(N[C@H]2CC[C@@H](CNC(=O)Nc3c(Cl)cccc3Cl)CC2)nc2ccccc12 [Example 3, hydrochloride] and report it.
stdout: 8.31

stdin: Find the measured pIC50 of Cc1cccc(Oc2ncccc2C(=O)N[C@H]2CC[C@@H](Nc3nc(N(C)C)c4ccccc4n3)CC2)c1 [Example 898, trifluoroacetate] and report it.
stdout: 8.48

stdin: Find the measured pIC50 of COc1ccc(NC(=O)N[C@H]2CC[C@@H](Nc3nc(N(C)C)c4ccccc4n3)CC2)cc1OC [Example 1, hydrochloride] and report it.
stdout: 7.89

stdin: Find the measured pIC50 of CN(C)c1nc(N[C@H]2CC[C@@H](CNC(=O)Nc3cccc(Cl)c3Cl)CC2)nc2ccccc12 [Example 2, hydrochloride] and report it.
stdout: 7.89

Switching to the query record.
stdin: Find the measured pIC50 of CN(C)c1nc(N[C@H]2CC[C@@H](NC(=O)COc3ccc(F)c(F)c3)CC2)nc2ccccc12 [Example 909, trifluoroacetate] and report it.
stdout: 9.01

---

- test-system: MCH receptor (Homo sapiens)
- experimental-protocol: High throughput functional screening FLIPR/FDSS6000: inhibition of MCH-evoked intracellular Ca2+ changes
- Type: cell-based
- condition-details: class by percent of control at 10^−7 M or by IC50; read-out: class
assay-readout: IC50

Worked cases, answers included:
stdin: Provide IC50, recorded with MCH receptor (Homo sapiens), of CN(C)c1nc(N[C@H]2CC[C@@H](NC(=O)c3cccnc3Oc3ccccc3Br)CC2)nc2ccccc12
stdout: < 50 nM

stdin: Provide IC50, recorded with MCH receptor (Homo sapiens), of CN(C)c1nc(N[C@H]2CC[C@@H](C(=O)NCc3ccc(Br)cc3)CC2)nc2cc(F)c(F)cc12
stdout: < 50 nM

stdin: Provide IC50, recorded with MCH receptor (Homo sapiens), of CCC(=O)Nc1cccc(C(=O)N[C@H]2CC[C@@H](Nc3nc(N(C)C)c4ccccc4n3)CC2)c1
stdout: < 50 nM

---
stdin: Provide IC50, recorded with MCH receptor (Homo sapiens), of CN(C)c1nc(N[C@H]2CC[C@@H](NC(=O)c3ccc(OCc4ccccc4)cc3)CC2)nc2ccccc12
stdout: > 200 nM

stdin: Provide IC50, recorded with MCH receptor (Homo sapiens), of CN(C)c1nc(N[C@H]2CC[C@@H](CNC(=O)c3ccc(OC(F)(F)F)cc3)C2)nc2ccccc12
stdout: > 200 nM

---

- test-system: MCH receptor (Homo sapiens, UniProt Q99705)
- experimental-protocol: High throughput functional screening FLIPR/FDSS6000: inhibition of MCH-evoked intracellular Ca2+ changes
- Assay type: cell-based
- condition-details: class by percent of control at 10^-7 M or by IC50; read-out: class
pIC50: −log10 of the molar value.
Some compounds, each annotated with its measured pIC50.

stdin: Find the measured pIC50 of CN(C)c1nc(N[C@H]2CC[C@@H](CNC(=O)Oc3cccc(C(F)(F)F)c3)CC2)nc2ccccc12 and report it.
stdout: < 6.70

stdin: Find the measured pIC50 of CN(C)c1nc(N[C@H]2CC[C@@H](CNC(=O)OCc3ccc([N+](=O)[O-])cc3)CC2)nc2ccccc12 and report it.
stdout: 6.70 to 7.30

stdin: Find the measured pIC50 of Cc1ccc([N+](=O)[O-])c(NC(=O)N[C@H]2CC[C@@H](Nc3nc(N(C)C)c4ccccc4n3)CC2)c1C and report it.
stdout: 6.70 to 7.30

stdin: Find the measured pIC50 of CN(C)c1nc(N[C@H]2CC[C@@H](NC(=O)Nc3ccc(Br)cc3)CC2)nc2ccccc12 and report it.
stdout: 6.70 to 7.30

stdin: Find the measured pIC50 of CCc1ccccc1NC(=O)N[C@H]1CC[C@@H](Nc2nc(N(C)C)c3ccccc3n2)CC1 and report it.
stdout: > 7.30

stdin: Find the measured pIC50 of COc1cc(COC(=O)NC[C@H]2CC[C@@H](Nc3nc(N(C)C)c4ccccc4n3)CC2)c([N+](=O)[O-])cc1OC and report it.
stdout: < 6.70

Switching to the query record.
stdin: Find the measured pIC50 of CN(C)c1nc(N[C@H]2CC[C@@H](NC(=O)Nc3c(Br)cc(Br)cc3Br)CC2)nc2ccccc12 and report it.
stdout: > 7.30

---

Some molecules, each annotated with its measured pIC50.
- test-system: MCH receptor (Homo sapiens, UniProt Q99705)
- experimental-protocol: High throughput functional screening FLIPR/FDSS6000: inhibition of MCH-evoked intracellular Ca2+ changes
- Type: cell-based
- condition-details: class by percent of control at 10^-7 M or by IC50; read-out: class
- From the text: Subsequently, a functional based assay was used to confirm the lead hits, referred to as FLIPR™ (the Fluorometric Imaging Plate Reader) and FDSS6000™ (Functional Drug Screening System). […] Fluorometric Imaging Plate Reader system was used to allow for rapid, kinetic measurements of intracellular fluorescence in 96 well microplates (or 384 well microplates). Simultaneous measurements of fluorescence in all wells can be made by FLIPR or FDSS6000™ every second with high sensitivity and precision. […]
pIC50: −log10 of the molar value.

Worked cases, answers included:
stdin: Provide pIC50, recorded with MCH receptor (Homo sapiens, UniProt Q99705), of CN(C)c1nc(N[C@H]2CC[C@@H](NC(=O)NCc3ccc(Br)cc3)CC2)nc2ccccc12
stdout: > 7.30

stdin: Provide pIC50, recorded with MCH receptor (Homo sapiens, UniProt Q99705), of CCCCCCNC(=S)N[C@H]1CC[C@@H](Nc2nc(N(C)C)c3ccccc3n2)CC1
stdout: 6.70 to 7.30

stdin: Provide pIC50, recorded with MCH receptor (Homo sapiens, UniProt Q99705), of COc1ccc(NC(=O)N[C@H]2CC[C@@H](Nc3nc(N(C)C)c4ccccc4n3)CC2)cc1Cl
stdout: > 7.30

stdin: Provide pIC50, recorded with MCH receptor (Homo sapiens, UniProt Q99705), of Cc1cc([N+](=O)[O-])ccc1NC(=O)N[C@H]1CC[C@@H](Nc2nc(N(C)C)c3ccccc3n2)CC1
stdout: > 7.30

stdin: Provide pIC50, recorded with MCH receptor (Homo sapiens, UniProt Q99705), of Cc1ccc(F)c(NC(=O)N[C@H]2CC[C@@H](Nc3nc(N(C)C)c4ccccc4n3)CC2)c1
stdout: < 6.70

---
stdin: Provide pIC50, recorded with MCH receptor (Homo sapiens, UniProt Q99705), of CN(C)c1nc(N[C@H]2CC[C@@H](CNC(=S)Nc3cccnc3)CC2)nc2ccccc12
stdout: < 6.70

stdin: Provide pIC50, recorded with MCH receptor (Homo sapiens, UniProt Q99705), of CN(C)c1nc(N[C@H]2CC[C@@H](NC(=O)Nc3c(Cl)cccc3Cl)CC2)nc2ccccc12
stdout: < 6.70

stdin: Provide pIC50, recorded with MCH receptor (Homo sapiens, UniProt Q99705), of CN(C)c1nc(N[C@H]2CC[C@@H](NC(=O)Nc3cc(Cl)c(Cl)cc3Cl)CC2)nc2ccccc12
stdout: < 6.70
